# protocol.description: wild-type TIM10 yeast growth inhibition – luminescence, uHTS, counter-screen for tim10-1 yeast inhibitor project, primary screen (AID 463195);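 further: wild-type TIM10 isogenic control strain grown at permissive 25 °C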
# reported.conditions: S. cerevisiae TIM10 strain growth, BacTiter-Glo luminescence, 24 h; at 10 µM; stronger effect = higher value
The campaign covered roughly 330,000 compounds. About 4,600 (1.4%) were called active. This excerpt belongs to a sample that is enriched for actives.
I would appreciate it if you labelled entries YES when inhibition is 10% or higher, otherwise NO.

Q: Please check the record O=C(O)c1ccccc1N=N/C(=N/Nc1cc(S(=O)(=O)O)ccc1O)c1ccccc1 and state if its inhibition is at or above 10%.
Result: NO

Q: Please check the record O=[N+]([O-])c1cccc(Nc2c3ccccc3nc3ccccc23)c1 and state if its inhibition is at or above 10%.
Result: YES

Q: Please check the record COCCNC(=O)C(OC(=O)c1cccs1)c1ccc(F)cc1 (stereo not drawn) and state if its inhibition is at or above 10%.
Result: YES

Q: Please check the record Nc1cccc(S(=O)(=O)Nc2ccc(SC(F)F)cc2)c1 and state if its inhibition is at or above 10%.
Result: YES

Q: Please check the record COc1cccc(-n2c(=S)sc3c(=O)n(-c4ccccc4C)c(SCC(=O)O)nc32)c1 and state if its inhibition is at or above 10%.
Result: NO

Q: Please check the record COc1ccc(CNc2ncnc3ccccc23)cc1 and state if its inhibition is at or above 10%.
Result: NO

Q: Please check the record CCN(CC)CC(=O)c1c[nH]c2ccc(OC)cc12 and state if its inhibition is at or above 10%.
Result: NO

Q: Please check the record COc1ccc(CNC(=O)C2CCN(C(=O)c3ccco3)CC2)cc1 and state if its inhibition is at or above 10%.
Result: NO

Q: Please check the record Cc1cccc(NC(=S)NC23CN4CN(CN(C4)C2)C3)c1 and state if its inhibition is at or above 10%.
Result: NO

Q: Please check the record CN1CCN(S(=O)(=O)c2cccc(C(=O)Nc3sccc3C#N)c2)CC1 and state if its inhibition is at or above 10%.
Result: NO

Q: Please check the record Cc1cc(C(=O)CC#N)c(C)n1CC(F)(F)F and state if its inhibition is at or above 10%.
Result: NO

Q: Please check the record COc1ccc(C(=O)ON=C2c3ccccc3-c3ccccc32)cc1OC and state if its inhibition is at or above 10%.
Result: YES

Q: Please check the record COc1ccc2c(CN3CCN(S(=O)(=O)c4cccs4)CC3)cc(=O)oc2c1 and state if its inhibition is at or above 10%.
Result: YES

Q: Please check the record Cc1cccc(NC(=O)CN2CCN(C(=O)C3CCN(C(=O)/C=C/c4ccccc4)CC3)CC2)c1C and state if its inhibition is at or above 10%.
Result: NO

Q: Please check the record O=C(Nc1ccncc1)c1cc2ccccc2o1 and state if its inhibition is at or above 10%.
Result: NO

Q: Please check the record Cc1cc(C(C)(C)C)cc(C)c1N and state if its inhibition is at or above 10%.
Result: NO

Q: Please check the record O=C(CCC(=O)N1CCN(S(=O)(=O)c2ccccc2)CC1)NC1CCCc2ccccc21 (stereo not drawn) and state if its inhibition is at or above 10%.
Result: NO

Q: Please check the record O=C(/C=C/c1ccc(Cl)c([N+](=O)[O-])c1)c1cccnc1 and state if its inhibition is at or above 10%.
Result: YES

Q: Please check the record O=C(Nc1ccc(F)cc1)c1cc2c(s1)CCCC2 and state if its inhibition is at or above 10%.
Result: YES

Q: Please check the record COc1cccc(CNC(C)C(=O)Nc2ccc(S(=O)(=O)N3CCCC3)cc2)c1 (stereo not drawn) and state if its inhibition is at or above 10%.
Result: YES

Q: Please check the record COc1ccc(NC(=O)CC2C(=O)NC3CCCCC3N2C(=O)c2ccc(F)cc2)cc1 (stereo not drawn) and state if its inhibition is at or above 10%.
Result: NO

Q: Please check the record O=C1c2ccccc2S(=O)(=O)N1CC(O)Cn1c2ccccc2c2ccccc21 (stereo not drawn) and state if its inhibition is at or above 10%.
Result: YES

Q: Please check the record COc1ccc2[nH]cc(/C=C(/C#N)S(=O)(=O)c3ccccc3)c2c1 and state if its inhibition is at or above 10%.
Result: YES

Q: Please check the record COc1ccc2c(c1OC)C(=O)N(c1ccc(O)cc1)C2 and state if its inhibition is at or above 10%.
Result: NO

Q: Please check the record CCc1ccc(C(CNc2nc(C(F)(F)F)nc3ccccc23)N(C)C)cc1 (stereo not drawn) and state if its inhibition is at or above 10%.
Result: NO

Q: Please check the record COc1cccc(CNc2nc(C(F)(F)F)nc3ccccc23)c1 and state if its inhibition is at or above 10%.
Result: YES

Q: Please check the record O=S(=O)(c1ccccc1)N1CCc2ccccc21 and state if its inhibition is at or above 10%.
Result: NO

Q: Please check the record COc1ccc2[nH]cc(CCN3C(=O)c4ccc(C(=O)O)cc4C3=O)c2c1 and state if its inhibition is at or above 10%.
Result: NO

Q: Please check the record Cc1ccc(N(CC(=O)NCC2CCCO2)C(=O)CNS(=O)(=O)c2ccc(Cl)cc2)cc1 (stereo not drawn) and state if its inhibition is at or above 10%.
Result: YES

Q: Please check the record O=C(Nc1ccncc1)c1ccc(Cl)c([N+](=O)[O-])c1 and state if its inhibition is at or above 10%.
Result: NO

Q: Please check the record CCN(CC)CCN(C(=O)c1ccc(S(=O)(=O)N2CCOCC2)cc1)c1nc2cc3c(cc2s1)OCCO3 and state if its inhibition is at or above 10%.
Result: YES

Q: Please check the record O=C(Nc1ccc2c(c1)CCC2)c1ccc(Br)s1 and state if its inhibition is at or above 10%.
Result: YES
